METHOD_DESCRIPTION: Drug level in human CWR22R cells xenografted mouse plasma at 50 mg/kg, po after 24 hrs on day 60
Assay type: ADME, organism-based
Parameters: dose 50 mg/kg, route oral
PARTICULARS: read-out: Drug uptake
MEASURE_NAME: concentration at 24 h

{"COMPOUND": "CC(O)(CS(=O)(=O)c1ccc(F)cc1)C(=O)Nc1ccc(C#N)c(C(F)(F)F)c1 (stereo unspecified) [BICALUTAMIDE]", "REPORTED_MEASUREMENT": "86 µM"}

====

METHOD_DESCRIPTION: Drug level in human CWR22R cells xenografted mouse plasma at 50 mg/kg, po after 1 hr on day 60
Assay type: ADME, organism-based
Parameters: dose 50 mg/kg, route oral
PARTICULARS: read-out: Drug uptake

{"MOLECULE": "CC(O)(CS(=O)(=O)c1ccc(F)cc1)C(=O)Nc1ccc(C#N)c(C(F)(F)F)c1 (stereo unspecified) [BICALUTAMIDE]", "concentration at 1 h, µM": 48.5}

Data provenance is ChEMBL document CHEMBL1142249.
